- System: Saccharomyces cerevisiae
- ASSAY_DETAILS: transcriptional activation domain activity (GFP:mCherry ratio, weighted mean of sorted bins, harmonized to initial dataset scale) (arbitrary fluorescence ratio units); higher = stronger transcriptional activation
- CONDITION_SUMMARY: beta-estradiol 1 µM; induction time 4 h
For each entry below, report its transcriptional activation domain activity value.
Numbers only.

These solved cases illustrate the format of a correct answer.
LLGLYMKMRFRTQEDFWRQIAILLRDLFVPDLQAETVVFFMRLLYNSNSMYKH    24100
SADTQKEEGKRAKVEKNRRGKRDGHKAGRFSGGRRKERGEASTQAGAAAAGAN    37500

List reported transcriptional activation domain activity for each of these sequences:
1. AAFSGEGDPWPGVAREIDENGENVGLAASRPAPAFLRVLTAVRVRVRIAFAFV
2. LLRRIMRYRNMHLLLSYAVELGFLRAIILCGRPSLSKVHHHVRFFLRDLLPAS
3. MSMFAMDFIIGHMVLFVLSPFTLVPYIDQLHSTMLFWLRPLLRLLRFYVHLYS
4. MSSVAAAESKPEKKQKKDKSSKSEKKRLREDDAADAERKHKKSKSLASSEVAA
5. IKIIQLLGTRYLYFMIKELRGALLRGYQMHVLGYTVHAILASIDLNPACLKAC
6. KSVLCDLVFTMFADLRDPSVSRRFATVDDLELWFSTTLIKALRHLVALFTEYY
7. KILVQAFKAVFTSPSSAKEADGDGEGADIIENNRRARRALYQVKVKTCVASII

1. 54500
2. 38800
3. 68200
4. 15100
5. 77200
6. 50400
7. 42000

====

For each entry below, report its transcriptional activation domain activity value.
- Tested on: Saccharomyces cerevisiae
- ASSAY_DETAILS: transcriptional activation domain activity (GFP:mCherry ratio, weighted mean of sorted bins, harmonized to initial dataset scale) (arbitrary fluorescence ratio units); higher = stronger transcriptional activation
- CONDITION_SUMMARY: beta-estradiol 1 µM; induction time 4 h
Answers are plain numbers.

These solved cases illustrate the format of a correct answer.
GVLALSPCDDTTLKATMGVIEELLIYLYFAGQMRELFYWACRVVNLSVHHGHA    69100
MAMGYMRFCALAISILLFREGKELTQRGSCGCLIYVCVRLEVGYYRLVFLIGY    54700
RLLNALLLPPYLEQIMYFGTLACFDAWLYTFTILPMRFISAVGVLVKWWLYLI    47500

Give measured transcriptional activation domain activity for every item shown.
1. NWYWLATTMYFLYGESVVYYLKHIVLVDKVLLPLATHHRFISFILYVFGFVFF
2. KFVDLGIFKAEGTRLRCRMCGFLIASLVLCMHMSQACPMYPRYPSSNMHEHPD
3. MIKFSLLIFLIVFILDYLIFFCFFFFFLFFYFFIQFTLFMVCGGDLIYGFING

[46100, 29300, 43200]

Field: transcriptional activation domain activity. Fill in for each record below.
1. KQPKKKAAAKKAQAPKKGKKRAADDDEEEEGEEDVKPKARGKGKGKAATGKGR
2. HFSLLWPPHCSLWCTLFFLLIGHFVFILCLCYSVFFSFPSFLLIVSCFLLCFP

[42300, 37800]

====

- System: Saccharomyces cerevisiae
- ASSAY_DETAILS: transcriptional activation domain activity (GFP:mCherry ratio, weighted mean of sorted bins, harmonized to initial dataset scale) (arbitrary fluorescence ratio units); higher = stronger transcriptional activation
- CONDITION_SUMMARY: beta-estradiol 1 µM; induction time 4 h
Entry flag: YES if transcriptional activation domain activity reaches 70000; NO if it does not.

Worked examples follow.
KVVLLFAGWIIKIIVAKLMLAWSQSMRKVIVQRAQLVYRFGINGMVFYSIGCA    NO
PFGFLTDEVKNSYLRCSYKWSFHHIPNLLIAIRERRLDPLLIWAMLAITVRFS    YES

Kindly determine if transcriptional activation domain activity recorded for MILARMLHIYIYKEIVDLTNVCIKCIKIISSEVRRVVLFNLDQTYETIPYIVE is above or exactly 70000. NO

Is reported transcriptional activation domain activity greater than or equal to 70000 here: VNHIVAYITLGIVGFCFLSYITLTLMPLIFHDCPYYTPFTSLLWYSAQIIPFF NO

Hello, I need to know if ALHLVWSGSTIYVKPLPACLVDFDFFMRFISPFPHIYEDACGFLLTYARLIVH has measured transcriptional activation domain activity not below 70000. Thanks! YES

Does transcriptional activation domain activity meet or surpass 70000 for SQLPSLRLFNSYLALWAIGLISIMLFLLIATWHYARVDWQMQVLAVHHVLNLS ? NO

Quick check, transcriptional activation domain activity >= 70000? RSKVLRPFWLFLLALCYNLVHATALFYQVITLNVAVNSYSNALLTLLMSNQFV NO

Reported transcriptional activation domain activity at or above 70000? ICLALCTVLTTLTLGVSLYFGVVLVRSDFLWQVSFRDLTWSYFVAFGAQVIVD NO

====

Provide the recorded transcriptional activation domain activity for the entries that follow.
- Tested on: Saccharomyces cerevisiae
- ASSAY_DETAILS: transcriptional activation domain activity (GFP:mCherry ratio, weighted mean of sorted bins, harmonized to initial dataset scale) (arbitrary fluorescence ratio units); higher = stronger transcriptional activation
- CONDITION_SUMMARY: beta-estradiol 1 µM; induction time 4 h
Numbers only.

Some solved entries appear below for comparison.
VPLHISLPSLVIDVRVIGEPGLYFADLGCCYCLDAELQITHIHGLFLHVVFIL    56600
RRDVTLMGGLCLHTIQGAYLAACAYFVVPFSLVVSLGFEALLLLFCFIFIFIF    50400
HLQTITINSEGDCGHCLSKYGILVIPTLERVVLVSREGRYPWSSWYLELRVFS    32100

Give measured transcriptional activation domain activity for every item shown.
1. MAAIDHDKVAKFVGGNSLDKATPGDVTDFVRKNGGHTVITKVLIANNGIAAVK
2. KQYCVRPNSGRIDPGKEVEVQVLLQAMKEDPPLDAKCRDKFLVQSVAVSADKE

1: 45000; 2: 64500

Please look at the items below and tell me transcriptional activation domain activity for each one, in order.
1. YLINLLYQLLWLVPFSAPLSLRSTLAKVYEFGGVHSGSAICSVLWFILLTVFL
2. MGLTVFSILYIPLNIIPPFFCCCLYIYHCFSFFSSTFILFFFFFGTVFAQVIL
3. PSRLTSPSSRRLPSTPGPHPRKSTPRSKPPPSSPARRRSSSTTPTGRPSQPSS

1: 64900; 2: 53200; 3: 24900

====

Exercise: for every item that follows, state its recorded transcriptional activation domain activity.
- System: Saccharomyces cerevisiae
- ASSAY_DETAILS: transcriptional activation domain activity (GFP:mCherry ratio, weighted mean of sorted bins, harmonized to initial dataset scale) (arbitrary fluorescence ratio units); higher = stronger transcriptional activation
- CONDITION_SUMMARY: beta-estradiol 1 µM; induction time 4 h
Answers are plain numbers.

Could you report transcriptional activation domain activity for every entry in the following list?
1. VLYSSLITIFTAFYWNVASTSSVQILALLLPYTHPNIAHASTIRPFLIYALFT
2. TLTLLLRERGYELFLLVHFIFVLYVNFLSCLSVRSPLCIVYYGAWPSMIVWGI
3. DSGKQGFLFLVCLVFFVFFWGFACDLWLGLLLLFFFFPFLSFPLFSLPHYHGH
4. MDILDIFFLFYSLLVSFLFFSLLIPPLFLSSFISISFYFFDGVLCVLLGFFFR

1: 66700; 2: 64600; 3: 43900; 4: 61500

====

- Tested on: Saccharomyces cerevisiae
- ASSAY_DETAILS: transcriptional activation domain activity (GFP:mCherry ratio, weighted mean of sorted bins, harmonized to initial dataset scale) (arbitrary fluorescence ratio units); higher = stronger transcriptional activation
- CONDITION_SUMMARY: beta-estradiol 1 µM; induction time 4 h
READOUT: transcriptional activation domain activity
Answers are plain numbers.

In the examples that follow, each entry is paired with its recorded transcriptional activation domain activity.
RGTQKREKRGKEKGEGGTWGRAEGEGKRGGKEKGRREEKRGKKKEAGGAGGRG    23500
MLRLYHLMWDSGDYIYTIIGGWLPLPRDLMYVPFPGFYLKYMIFPTPLTLSVL    43600
VALTFYFLFLLFLILLRLGLISCFVFFNFWYIYHFFYLSINLSIFFISFHSFI    78300
APSIRYRLPFDSLLFVFCGTLLCTLIFLREALIPHFPCWVLLWGAYILLPLCF    15900

Give measured transcriptional activation domain activity for every item shown.
1. MSFLHCFFHVRYFPSNLFVIVIMFLLLFVHSFARGWRMEYAVSFLFNSLVLMY
2. VSSCCPFPLFLFFSFFLSFFLPFLLSSFLSITQSSWPPFHCPCQDTFPFSLPF
3. HESEESSDKKGKKKAKIEEEKEEEKEAEEEKAEEVEEAEEAEEVGEVGEEAAV
4. ILLRRAWTVNAEMLLHKFDPRLFPLYFRILYPTWDTCSIPAPSRLVGAAKQWL
5. ANEYNVVCSILVFWSDTVPLWGFFLIFWFFFLGFQLLGVESFGEAEFWLALLK

61700
28000
45400
46700
62200
